test system: HCV replicon RNA-containing Huh7 cells (clone A cells); assay: HCV replicon assay (replicon RNA by RT-PCR, ΔCt HCV, EC90); type: cell-based; settings: Hepatitis C virus, Huh-7, 96 h
reportedEndpoint: EC90

Consider the reported EC90 for these compounds:
COC(=O)[C@H](C)NP(=O)(OC[C@H]1O[C@@H](N2C=NC3C(NC4CCCC4)=NC(N)=NC32)[C@](C)(F)[C@@H]1O)Oc1ccccc1 (stereo partly drawn) ... < 300 nM
COC(=O)[C@H](C)NP(=O)(OC[C@H]1O[C@@H](N2C=NC3C(N4CCC4)=NC(N)=NC32)[C@](C)(F)[C@@H]1O)Oc1ccccc1 (stereo partly drawn) ... < 300 nM

Field: EC90. Fill in for each record below.
1. CC(C)OC(=O)[C@H](C)NP(=O)(OC[C@H]1O[C@@H](n2ccc(=O)[nH]c2=O)[C@](C)(F)[C@@H]1O)Oc1ccc(Br)cc1 (stereo partly drawn)
2. C[C@H](NP(=O)(OC[C@H]1O[C@@H](n2ccc(=O)[nH]c2=O)[C@](C)(F)[C@@H]1O)Oc1ccc(F)cc1)C(=O)OC1CCCCC1 (stereo partly drawn)
3. COC(=O)CNP(=O)(OC[C@H]1O[C@@H](n2ccc(=O)[nH]c2=O)[C@](C)(F)[C@@H]1O)Oc1ccccc1 (stereo partly drawn)
4. CC(C)OC(=O)[C@H](C)NP(=O)(OC[C@H]1O[C@@H](n2ccc(=O)[nH]c2=O)[C@](C)(F)[C@@H]1O)Oc1ccccc1Cl (stereo partly drawn)

output:
570 nM
< 300 nM
860 nM
21900 nM
